# study-system: Macaca fascicularis PRLR (mfPRLR.mmh; SEQ ID NO:403)
# Sequence (as listed by the source): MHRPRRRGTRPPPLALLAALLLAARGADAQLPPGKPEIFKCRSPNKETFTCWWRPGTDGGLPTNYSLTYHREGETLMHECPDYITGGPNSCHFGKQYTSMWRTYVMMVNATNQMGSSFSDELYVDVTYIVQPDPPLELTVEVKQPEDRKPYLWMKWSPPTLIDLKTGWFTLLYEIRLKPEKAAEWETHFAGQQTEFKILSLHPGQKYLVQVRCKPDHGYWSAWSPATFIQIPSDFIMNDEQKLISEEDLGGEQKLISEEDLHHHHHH
# protocol: Surface plasmon resonance (Biacore T200), antibody-capture format
# Type: binding
# assay-setup: 25° C., analyte mfPRLR.mmh
Classify: satisfied when kd is strictly less than 0.0003 s⁻¹; not satisfied when kd is not.

Worked examples follow.
H1H6793P: fully human anti-PRLR antibody, human IgG1 Fc; HCVR/LCVR SEQ ID NOs 146/154 (antibody, V domains shown) VH: EVQLVESGGGLVQPGGSLRLSCAASGFSFSIYAMSWFRQAPGKGLEWVSAINGRGDGTHYADSVKGRFTISRDNSKTTLYLQMSSLRAEDTAVYYCAKPVMSTNGFDIWGQGTMVTVSS VL: DIQMTQSPSTLSASVGDRVTITCRASQSISSWLAWYQLKPGKAPKLLIYKASNLESGVPSRFSGSGSGTEFTLTISSLQPDDFATYYCQQYNIYWTFGQGTKVEIK
not satisfied
H1H6801P: fully human anti-PRLR antibody, human IgG1 Fc; HCVR/LCVR SEQ ID NOs 210/218 (antibody, V domains shown) VH: QVQLQQSGPGLVKPSQTLSLTCVISGDSVSSNTAWNWVRQSPSRGLEWLGRTYYRSKWYNDYAVSVKSRITINPDTSKNQFSLLMNSVTPEDTAVYYCARVVRGLNYFDYWGQGTLVTVSS VL: DIVMTQSPDSLAVSLGERATINCKSSQSVLYNSNNKNYLAWYQQKPGQPPKLLIYWSSSRESGVPDRFSGSGSGTDFTLTISGLQAEDVAIYYCQQYSTIPYTFGQGTKLEIK
not satisfied
H1H6966N: anti-PRLR antibody, human IgG1 Fc form of H2M6966N of Table 1; HCVR/LCVR SEQ ID NOs 338/346 (antibody, V domains shown, human IgG1 Fc) VH: QVQLVQSGAEVQKPGASVKVSCKVSGYTLTALSIHWVRQAPGKGLEWMGNFDPGDGETIHAQKFQGRVTMTGDTSTDTAYMELSSLRSEDTAVYYCVGVTFDYWGQGTLVTVSS VL: EIVMTQSPATLSVSPGERATLSCRASQSVASNLAWYQQKPGQAPRLLLYGASTRATGIPARFSGSGSGTEFTLTISSLQSEDFALYYCQHYNNWPLTFGGGTKVEIK
not satisfied
H1H6803P: fully human anti-PRLR antibody, human IgG1 Fc; HCVR/LCVR SEQ ID NOs 226/234 (antibody, V domains shown) VH: EVQLVESGGGVVRPGGSLRLSCAASGFKFDDYGMTWVRHVPGKGLEWVSGINWNGGRTGYTDSVKGRFTISRDNAKNSLYLQMNSLRAEDTALYHCAGARRDAFDIWGQGTMVTVSS VL: DIQMTQSPSSLSASIGDRVTITCRASQNIIKYLNWYQQNAGKAPKLLIYTASSLQSGVPSRFSGSGSGTDFTLTISSLQPEDFATYYCQQSSSSPYTFGQGTKLEIK
satisfied
H1H6765P: fully human anti-PRLR antibody, human IgG1 Fc; HCVR/LCVR SEQ ID NOs 18/26 (antibody, V domains shown) VH: EVQLVESGGGVVRPGGSLRLSCVGSGFSFDDHGMNWVRQGPGKGLEWVSGFNWNGGSTNYAESVKGRFTISRDNARNSLFLQMNSLRAEDTALYYCVRGRSGWFNDAFDVWGPGTMVTVSS VL: EIVLTQSPGTLSLSPGERATLSCRASQTINSNYLAWYRQKPGQTPRLLIYGTSSRATGIPDRFSGSGSGTDFSLTISRLEPEDFAVFYCQQYAGLPTFGPGTKVDIK
satisfied
H1H6782P: fully human anti-PRLR antibody, non-blocking; HCVR/LCVR SEQ ID NOs 66/74 (antibody, V domains shown) VH: EVQLVESGGGLVQPGRSLRLSCAASGFTFDDYAMHWVRQAPGKGLEWVSGIIWNSGHIGYGDSVKGRFTISRDNAKKSLYLQMNSLRAEDTALYYCARDSGRYQSYFDYWGQGTLVTVSS VL: DIQMTQSPSTLSASVGDRVTITCRASHIISSWLAWYQQKPGKAPKVLIFKASSLESGVPSRFSGSGSGTEFTLTISSLQPDDFATYYCQQYNTYSRTFGQGTKVEIK
satisfied

# strict comparison: is reported kd < 0.0003 s⁻¹? input = H1H6781P: fully human anti-PRLR antibody, human IgG1 Fc; HCVR/LCVR SEQ ID NOs 50/58 (antibody, V domains shown) VH: EVQLVESGGDLVQPGESLRLSCTASGFTFNSYEMNWVRQAPGKGLEWVSYISSSGGTKYYVDSVKGRFTISRDNAKKSLYLQMNSLRADDTALYYCARLNGVDVFDIWGQGTMVTVSS VL: DIQMTQSPSSLSASVGDRVTITCRASQDIFNYLAWFQQKPGKVPELLISAASTLQSGVPSRFSGSGSGTYFTLTISSLQPEDIATYYCQRYNSAPLTFGGGTKVEIK
satisfied

Please check: kd for H1H6975N: anti-PRLR antibody, human IgG1 Fc form of H2M6975N of Table 1; HCVR/LCVR SEQ ID NOs 370/378 (antibody, V domains shown, human IgG1 Fc) VH: EVHLVESGGGLVQPGGSLRLSCAASGFTFSSYEMNWVRQTPGKGLEWISHISSRSVIIYYADSVKGRFTISRDNAKNSLFLQMNSLRAEDTAVYFCAGITIFGIPEYWGQGTLVTVSS VL: EIVLTQSPATLSLSPGERATLSCRASQSVSSYFAWYQQKPGQAPRLLIYDASSRATGIPTRFSGSGSGTDFTLTISSLEPEDFAVYYCQQRSSWPITFGQGTRLEIK , strictly under 0.0003 s⁻¹ or not?
satisfied
